# System name: human androgen receptor (Homo sapiens)
# Construct: expressed in transfected cells; host or cells: HeLa cells (clone 11A11B2), stably co-transfected with MMTV-Luc-Hyg reporter
# Sequence (P10275 1-920): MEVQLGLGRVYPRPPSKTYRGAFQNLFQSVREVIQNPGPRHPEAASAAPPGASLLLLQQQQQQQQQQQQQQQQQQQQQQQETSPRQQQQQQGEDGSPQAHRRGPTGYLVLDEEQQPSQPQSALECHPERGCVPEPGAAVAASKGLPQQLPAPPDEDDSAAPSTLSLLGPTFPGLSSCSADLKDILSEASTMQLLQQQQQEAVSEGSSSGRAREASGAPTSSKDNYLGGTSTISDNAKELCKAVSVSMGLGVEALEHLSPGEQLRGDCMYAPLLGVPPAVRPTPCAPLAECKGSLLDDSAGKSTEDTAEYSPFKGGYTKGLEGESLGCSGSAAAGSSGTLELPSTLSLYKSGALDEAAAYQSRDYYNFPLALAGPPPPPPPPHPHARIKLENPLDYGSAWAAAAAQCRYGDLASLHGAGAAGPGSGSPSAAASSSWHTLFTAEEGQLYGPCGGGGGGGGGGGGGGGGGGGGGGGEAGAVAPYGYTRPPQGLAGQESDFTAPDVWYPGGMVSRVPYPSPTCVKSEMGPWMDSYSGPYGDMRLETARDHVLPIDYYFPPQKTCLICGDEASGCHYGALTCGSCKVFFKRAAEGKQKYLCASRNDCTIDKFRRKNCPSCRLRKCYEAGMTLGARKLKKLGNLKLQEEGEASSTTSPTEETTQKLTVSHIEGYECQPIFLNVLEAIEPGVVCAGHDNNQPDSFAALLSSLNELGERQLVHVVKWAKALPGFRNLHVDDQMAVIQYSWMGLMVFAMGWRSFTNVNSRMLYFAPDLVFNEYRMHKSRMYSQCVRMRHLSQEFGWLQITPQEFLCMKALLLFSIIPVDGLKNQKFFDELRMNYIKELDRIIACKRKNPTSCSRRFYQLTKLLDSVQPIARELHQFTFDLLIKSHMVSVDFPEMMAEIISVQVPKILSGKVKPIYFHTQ
# Method: Test Example 2: antagonist effect, androgen receptor reporter gene assay in 11A11B2 cells with 0.1 nmol/L DHT
# Assay type: cell-based
Can you tell me pIC50 for the items I'm about to list?
Give bare numbers, as −log10 of the molar value.

Illustrative cases are given below, each with its answer.
# Compound, Measured value
measured = [
    ("CC1(C)C(=O)N(c2ccc(C#N)c(C(F)(F)F)c2)C(=S)N1CCS(N)(=O)=O", 6.22),
    ("CN1C(=S)N(c2ccc(C#N)c(C(F)(F)F)c2)C(=O)C1(C)C [Comparative Example 1, reference compound]", 9.00),
    ("CN(C)S(=O)(=O)CCCCN1C(=S)N(c2ccc(C#N)c(C(F)(F)F)c2)C(=O)C1(C)C", 7.00),
]

// next item, pIC50 requested
# input Would you kindly share the measured pIC50 for `CC1(C)C(=O)N(c2ccc(C#N)c(C(F)(F)F)c2)C(=S)N1CCCS(N)(=O)=O` ?
# output 6.70
